Parameter: kon. Scope: all listed entries.
# Target System: T1, recombinant MBP-EDIII of DENV3 (Dengue virus 3, strain …, UniProt P27915, strain)
# T1 construct: also called DENV3 EDIII; envelope protein domain III of DENV3; not shown: MBP, N-terminal, kept
# Assay Summary: SPR
# Assay Setup: both partners purified
Please state the figure in M⁻¹ s⁻¹; there is no need to write the unit.

| Binder | kon / M⁻¹ s⁻¹ |
| --- | --- |
| 1A1D-2 Fab Y105R.H (Fab, V domains shown) VH: EVQLQQSGAELVKPGASVKLSCTASGFNIKDTYMHWVKQRPEQGLEWIGRIDPANGYSKYDPKFQGKATITADTSSNAAYLQLSSLTSEDTAVYFCARDYEGFARWGQGTLVTVSS VL: DIVLTQSPASLAVSLGQRATISCRASESVVRYGNSFMHWYQQKPGQPPKLLIYRASSLESGIPTRFSGSGSRTDFTLTINPVEADDVATYYCQQTNVDPWAFGGGTKLEIK | 85200 |

Problem: Item 1A1D-2 Fab A54E-Y105R double mutant (Fab, V domains shown) VH: EVQLQQSGAELVKPGASVKLSCTASGFNIKDTYMHWVKQRPEQGLEWIGRIDPENGYSKYDPKFQGKATITADTSSNAAYLQLSSLTSEDTAVYFCARDYEGFARWGQGTLVTVSS VL: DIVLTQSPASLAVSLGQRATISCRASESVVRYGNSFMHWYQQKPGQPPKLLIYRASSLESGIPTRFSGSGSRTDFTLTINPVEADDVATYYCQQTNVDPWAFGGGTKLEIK has what recorded kon?
Result: 222000

Problem: Item 1A1D-2 Fab WT (Fab, V domains shown, also called 1A1D-2 WT) VH: EVQLQQSGAELVKPGASVKLSCTASGFNIKDTYMHWVKQRPEQGLEWIGRIDPANGYSKYDPKFQGKATITADTSSNAAYLQLSSLTSEDTAVYFCARDYEGFAYWGQGTLVTVSS VL: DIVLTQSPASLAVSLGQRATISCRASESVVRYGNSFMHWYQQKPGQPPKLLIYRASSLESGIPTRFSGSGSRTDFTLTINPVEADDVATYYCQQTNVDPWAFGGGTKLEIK has what recorded kon?
Result: 87000

Problem: Item 1A1D-2 Fab A54E.H (Fab, V domains shown) VH: EVQLQQSGAELVKPGASVKLSCTASGFNIKDTYMHWVKQRPEQGLEWIGRIDPENGYSKYDPKFQGKATITADTSSNAAYLQLSSLTSEDTAVYFCARDYEGFAYWGQGTLVTVSS VL: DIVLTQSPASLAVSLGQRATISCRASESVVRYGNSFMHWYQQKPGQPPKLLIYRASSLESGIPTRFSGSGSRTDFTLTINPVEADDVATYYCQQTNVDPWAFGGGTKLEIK has what recorded kon?
Result: 354000
